tested on: MIWI (PIWIL1) piRISC loaded with L1MC piRNA (30 nt); assay: pre-steady-state target cleavage rate (min^-1); MIWI and MILI are mouse PIWI proteins and EfPiwi is from a freshwater sponge; tags in brackets are library labels; higher = faster piRNA-guided slicing of the target; conditions: guide: L1MC piRNA 5'p-UAACUAAAUACUAUGCAAGCUGUAGGUCCU; auxiliary factor: none (no GTSF1);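 also: 1 nM active piRISC with 0.1 nM target library at 33 °C single turnover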
In all, about 8,200 sequences were measured (“pre-steady-state target cleavage rate”: median about 0.024, highest 2% from about 1.3 on). This excerpt belongs to a sample that is enriched for the highest values.
Endpoint name: pre-steady-state target cleavage rate

UCCUCCUACAGCUUAGCAUAGUAUUUAGUUA: 0.0108
UCCACCUACAGCUUGCAUAGUAUUUAGUUUA: 0.0632
UGGACCUACAGCUUGCUAUGUAUUUAGUUA: 0.00588
AGGACCUACAGCUUGGAUAGUAUUUACUUA: 0.0287
AGGACCUACAGCUUAGCAUAGUAUUUAGUUA: 0.0387
UGCACCUACAGGUUGCAUAGUAUUUAGUUA: 0.0244

Origin of values: the supplement of paper PMC10338343
